Origin of the recorded values: the pKa sets of Baltruschat and Czodrowski (2020)

Please provide measured pKa for the entries that follow.
Give bare numbers.

Field: example entries. Status: answers known.
1. CS(=O)(=O)c1ccc(-c2cnc(N)c(-c3ccc(C(F)(F)F)cc3)c2)cc1 : 4.9
2. Nc1ccc(-c2cc3ccccc3oc2=O)cc1 : 3.9
3. COc1ccc(N2CCOCC2)c2sc(NC(=O)N3CCC(C)(O)CC3)nc12 : 9.4
4. N#Cc1cnc(NC(=O)Nc2ccc(Cl)c(Cl)c2)s1 : 7.5
5. Fc1cccc(-c2c[nH]c3ncccc23)c1 : 4.1
6. COc1ccccc1S(=O)(=O)Nc1ccc2c(c1)CN(C)C(=O)N2 : 8.65
7. Cc1cc(C)nc(N2CCC3(CCCN(Cc4nn(C)cc4-c4ccccc4)C3=O)CC2)n1 : 4.75
8. C1=C(c2ccccc2)N2CC[NH+]=C2c2ccccc21 : 10.3

I need pKa for every entry listed below, if you could help.
1. O=C1N(Cc2ccccc2)CCCC12CCN(c1cnc3ccccc3n1)CC2
2. N#Cc1csc(NC(=O)Nc2ccc(Cl)c(Cl)c2)n1
3. O=C1N(Cc2c[nH]c3ccccc23)CCCC12CCN(c1ncccn1)CC2
4. O=C([O-])c1ccccc1Nc1cc(C(F)(F)F)cc(C(F)(F)F)c1

1. 3.6
2. 8.3
3. 3.8
4. 3.9

I need pKa for every entry listed below, if you could help.
1. O=C([O-])c1ccc(-c2nn(C(=O)c3c(Cl)cccc3Cl)c3ccccc23)cc1
2. COc1cccc(-c2cccc(CCC3(C)CC(=O)N(C)C(N)=[NH+]3)c2)c1 (centres undefined)

[3.2, 9.4]
